# METHOD: solvent given as SMILES
# REPORTED CONDITIONS: in C1COCCO1
Consider the following compounds; for each one, report its emission maximum.
All answers are understood in nm, so give the number only.

**Q:** # lookup: emission maximum of O=C1Nc2ccccc2/C1=C/C(=O)c1ccccc1
**A:** 396

**Q:** # lookup: emission maximum of Cc1c(OCC(=O)O)cc2c3c([nH]c2c1C)C(=O)CCC3
**A:** 403.62

**Q:** # lookup: emission maximum of Oc1ccccc1/N=C/c1ccccc1Oc1ccccc1
**A:** 410

====

Consider the following molecules; for each one, report its emission maximum.
# METHOD: solvent given as SMILES
# REPORTED CONDITIONS: in CC#N
All answers are understood in nm, so give the number only.

**Q:** # lookup: emission maximum of Oc1ccc2ccccc2c1/C=N/C1CCCCC1/N=C/c1c(O)ccc2ccccc12 (stereo not drawn)
**A:** 471

**Q:** # lookup: emission maximum of COc1ccc2c3c(cccc13)C(=O)c1ccccc1-2
**A:** 526.87

**Q:** # lookup: emission maximum of CCN(CC)c1ccc(/C=N/CC/N=C/c2ccc(N(CC)CC)cc2O)c(O)c1
**A:** 415

**Q:** # lookup: emission maximum of COC(=O)c1ccc(C2=C3C=CC(C)=[N+]3[B-](F)(F)n3c(C)ccc32)cc1
**A:** 531

**Q:** # lookup: emission maximum of COC(=O)/C=C/c1sc(-c2ccc(N(C)C)cc2)cc1N
**A:** 609

**Q:** # lookup: emission maximum of Oc1ccc2ccccc2c1/C=N/c1cc2ccccc2cc1/N=C/c1c(O)ccc2ccccc12
**A:** 509

**Q:** # lookup: emission maximum of CCC1(CC)c2cc(B(c3c(C)cc(C)cc3C)c3c(C)cc(C)cc3C)ccc2-c2ccc(N(c3ccccc3)c3ccccc3)cc21
**A:** 531

**Q:** # lookup: emission maximum of CC1(C)c2ccccc2N(c2ccc3c(c2)C(C)(C)c2cc(N4c5ccccc5C(C)(C)c5ccccc54)ccc2S3(=O)=O)c2ccccc21
**A:** 526.32
